So I've got a bunch of compounds here, and I need their growth values.
Test system: SNB-75 CNS
Assay: NCI-60 one-dose screen, 48 h (100 = growth as untreated, 0 = no growth, -100 = all killed)
Conditions: 10 µM unless noted
Experimental: Growth inhibition of the SNB-75 human tumor cell line is measured as a screen for anti-cancer activity. Cells are grown in 96 well plates and exposed to the test compound for 48 hours. Compounds are tested at a single concentration, which is 10^-5 M for most compounds. The reported endpoint is percent growth (GI% or GIPRCNT), where numbers from 0 - 100% represent growth inhibition, and numbers from -100% - 0 represent cell death. For example, a value of 40 represents 60% growth inhibition. […]
The panel holds about 83,000 compounds, 20% with a hit somewhere; the sample as a whole holds those more often.
Answers are plain numbers, in %.

Previously resolved entries follow.
Cc1ccc(-c2nc3nc(-c4ccc(Cl)cc4)nc(N4CCCNCC4)c3o2)cc1 -10.4
Cc1cccc(Cc2cnc(NC(=O)CCCOc3ccc(Cl)cc3)s2)c1 21.3
N=c1c2c(-c3ccccc3)c(-c3ccccc3)oc2ncn1NC(=O)c1cccnc1 105

### Prompt # growth lookup, item `C[C@]12CCc3c(ccc4cc(O)ccc34)[C@@H]1C[C@H](O)[C@@H]2O`
### Response 116

// provenance: PubChem BioAssay (NCI)
